As shown below, each of these binders has a reported RBD binding of 2nd Ab after 1st Ab (heat map) value.
- Measurement target: T1, SARS-CoV-2 receptor binding domain (RBD), wild type, His-tagged (SARS-CoV-2, UniProt P0DTC2 319-541)
- T1 construct: domain: RBD; also called His-tagged RBD; BEI NR52309
- Method summary: BLI competition on His-tagged RBD, after 1st Ab 52
Keep it simple and answer with nothing but the number.

Some solved entries appear below for comparison.
mAb 46 (antibody, V domains shown, also called IgG 46; Antibody 46) VH: EVQLLESGGGLVQPGRSLRLSCAASGFTFSSYAMSWVRQAPGKGLEWVSTIYSGGSTYYADSVKGRFTISRDNSKNTLYLQMNSLRAEDTAVYYCARGDSRDAFDIWGQGTMVTVSS VL: DIQMTQSPSSLSASVGDRVTITCRASQSISSWLAWYQQKPGKAPKLLIYDASNLETGVPSRFSGSGSGTDFTLTISSLQPEDFATYYCQQSYSTPFTFGPGTKVDIKR: 0.2
mAb 324 (antibody, V domains shown, also called IgG 324; Antibody 324) VH: QVQLVQSGAEVKKPGASVKVSCKASGGTFNNYGISWVRQAPGQGLEWMGWMNPNSGNTGYAQKFQGRVTMTRDTSTSTVYMELSSLRSEDTAVYYCARVGDYGDYIVSPFDLWGRGTLVTVSS VL: DIQMTQSPSSLSASVGDRVTITCRASQSITTYLNWYQQKPGKAPKLLIYDASNLETGVPSRFSGSGSGTDFTLTISSLQPEDFATYYCQQSYSTPPTFGQGTKVEIKR: 1

Please turn your attention to the following entry.
Please supply the value of reported RBD binding of 2nd Ab after 1st Ab (heat map) for the item mAb 82 (antibody, V domains shown, also called IgG 82; Antibody 82) VH: QVQLVQSGAEVKKPGASVKVSCKASGGSFSTSAFYWVRQAPGQGLEWMGWINPYTGGTNYAQKFQGRVTMTRDTSTSTVYMELSSLRSEDTAVYYCARSRALYGSGSYFDYWGQGTLVTVSS VL: DIQMTQSPSSLSASVGDRVTITCRASQVISNYLAWYQQKPGKAPKLLIYDASNLETGVPSRFSGSGSGTDFTLTISSLQPEDFATYYCQQSFSPPPTFGQGTRLEIKR
0.6
